TARGET UNDER TEST: UniProtKB P36544
Consider the following compounds and their measured Kd readings.
Express your answer in nM, writing the number without its unit.

COMPOUND: CC(C)C[C@@H]1NC(=O)[C@H](Cc2ccccc2)NC(=O)[C@@H]2CSSC[C@H](NC(=O)CN)C(=O)N[C@@H](CSSC[C@@H](C(N)=O)NC(=O)[C@H](Cc3ccc(O)cc3)NC(=O)[C@H](CC(=O)O)NC(=O)[C@@H]3CCCN3C(=O)[C@H](Cc3c[nH]cn3)NC(=O)[C@H](CC(N)=O)NC1=O)C(=O)N[C@@H](CO)C(=O)N[C@@H](Cc1c[nH]cn1)C(=O)N1CCC[C@H]1C(=O)N1CCC[C@H]1C(=O)N2 [[N12H]]
TARGET UNDER TEST: UniProtKB P36544
QUANTITY KIND: Kd
NUMERIC READOUT: 81
//
COMPOUND: CC(C)C[C@@H]1NC(=O)[C@H](Cc2ccccc2)NC(=O)[C@@H]2CSSC[C@H](NC(=O)CN)C(=O)N[C@@H](CSSC[C@@H](C(N)=O)NC(=O)[C@H](CC(=O)O)NC(=O)[C@H](CC(=O)O)NC(=O)[C@@H]3CCCN3C(=O)[C@H](CC(N)=O)NC(=O)[C@H](CC(N)=O)NC1=O)C(=O)N[C@@H](CO)C(=O)N[C@@H](Cc1c[nH]cn1)C(=O)N1CCC[C@H]1C(=O)N1CCC[C@H]1C(=O)N2 [[Y15D]]
TARGET UNDER TEST: UniProtKB P36544
QUANTITY KIND: Kd
NUMERIC READOUT: 27

Field: next compound
Summary: CC(C)C[C@@H]1NC(=O)[C@H](Cc2ccccc2)NC(=O)[C@@H]2CSSC[C@H](NC(=O)CN)C(=O)N[C@@H](CSSC[C@@H](C(N)=O)NC(=O)[C@H](Cc3ccc(O)cc3)NC(=O)[C@H](CCC(=O)O)NC(=O)[C@@H]3CCCN3C(=O)[C@H](CC(N)=O)NC(=O)[C@H](CC(N)=O)NC1=O)C(=O)N[C@@H](CO)C(=O)N[C@@H](Cc1c[nH]cn1)C(=O)N1CCC[C@H]1C(=O)N1CCC[C@H]1C(=O)N2 [[D14E]] , UniProtKB P36544, Kd = 2

---

TARGET UNDER TEST: human α7β2‐nAChR (Homo sapiens, UniProt P17787+P36544)
Construct: expressed in transfected cells; host or cells: Xenopus laevis oocytes, cRNA injection
Sequence (P36544 23-502 limits assumed): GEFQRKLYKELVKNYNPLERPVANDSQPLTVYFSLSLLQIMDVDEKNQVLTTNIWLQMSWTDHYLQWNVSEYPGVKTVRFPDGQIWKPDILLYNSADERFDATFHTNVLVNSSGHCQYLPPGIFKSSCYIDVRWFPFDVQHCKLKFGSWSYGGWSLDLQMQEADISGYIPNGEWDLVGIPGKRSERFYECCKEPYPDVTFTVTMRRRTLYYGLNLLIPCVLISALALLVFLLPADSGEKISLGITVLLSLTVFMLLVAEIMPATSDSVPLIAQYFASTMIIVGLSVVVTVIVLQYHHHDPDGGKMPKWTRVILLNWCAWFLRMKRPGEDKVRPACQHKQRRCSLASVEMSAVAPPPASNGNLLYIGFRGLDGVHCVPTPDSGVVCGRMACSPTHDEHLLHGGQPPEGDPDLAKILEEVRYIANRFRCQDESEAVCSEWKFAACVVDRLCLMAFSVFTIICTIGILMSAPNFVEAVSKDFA
Sequence (P17787 26-502 limits assumed): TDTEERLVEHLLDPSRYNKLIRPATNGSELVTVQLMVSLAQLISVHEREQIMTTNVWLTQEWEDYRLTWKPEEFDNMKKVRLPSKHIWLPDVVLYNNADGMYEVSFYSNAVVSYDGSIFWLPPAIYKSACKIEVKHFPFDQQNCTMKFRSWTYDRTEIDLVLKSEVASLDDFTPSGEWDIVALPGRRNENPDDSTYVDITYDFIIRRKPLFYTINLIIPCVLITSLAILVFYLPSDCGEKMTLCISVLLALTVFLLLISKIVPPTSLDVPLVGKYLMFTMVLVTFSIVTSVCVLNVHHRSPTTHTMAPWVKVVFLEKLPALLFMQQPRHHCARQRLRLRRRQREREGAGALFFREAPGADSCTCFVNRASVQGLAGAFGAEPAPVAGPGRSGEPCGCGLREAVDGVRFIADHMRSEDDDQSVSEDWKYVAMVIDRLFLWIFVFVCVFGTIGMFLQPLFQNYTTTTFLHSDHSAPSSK
ASSAY PROCEDURE: cell-based
CONDITION INFO: read-out: k off α7β2; SEM
Consider the following compounds and their measured koff readings.
Express your answer in s⁻¹, writing the number without its unit.

COMPOUND: CC(C)C[C@@H]1NC(=O)[C@H](CC(C)C)NC(=O)[C@@H]2CSSC[C@H](NC(=O)CN)C(=O)N[C@@H](CSSC[C@@H](C(N)=O)NC(=O)[C@H](Cc3ccc(O)cc3)NC(=O)[C@H](CC(=O)O)NC(=O)[C@@H]3CCCN3C(=O)[C@H](CC(N)=O)NC(=O)[C@H](CC(N)=O)NC1=O)C(=O)N[C@@H](CO)C(=O)N[C@@H](Cc1c[nH]cn1)C(=O)N1CCC[C@H]1C(=O)N1CCC[C@H]1C(=O)N2 [[F9L]]
TARGET UNDER TEST: human α7β2‐nAChR (Homo sapiens, UniProt P17787+P36544)
QUANTITY UNIT: s⁻¹
koff: 0.000292

So for CC(C)C[C@@H]1NC(=O)[C@H](Cc2ccccc2)NC(=O)[C@@H]2CSSC[C@H](NC(=O)CN)C(=O)N[C@@H](CSSC[C@@H](C(N)=O)NC(=O)[C@H](Cc3ccc(O)cc3)NC(=O)[C@H](CC(=O)O)NC(=O)[C@@H]3CCCN3C(=O)[C@H](Cc3c[nH]cn3)NC(=O)[C@H](CC(N)=O)NC1=O)C(=O)N[C@@H](CO)C(=O)N[C@@H](Cc1c[nH]cn1)C(=O)N1CCC[C@H]1C(=O)N1CCC[C@H]1C(=O)N2 [[N12H]] , the logged koff turned out to be 0.000308
